Each recorded value in this set is attributed to patent US7381824B2.

- experimental.system: human vascular endothelial growth factor receptor 2 (VEGF-R2) (Homo sapiens, UniProt P35968, DEL940-989/E990V)
- Construct: VEGF-R2D50 contains residues 806-939 and 990-1171; made in house; host or cells: baculovirus/insect cell system
- Sequence (P35968 with tags, fused parts or gaps DEL940-989/E990V limits assumed): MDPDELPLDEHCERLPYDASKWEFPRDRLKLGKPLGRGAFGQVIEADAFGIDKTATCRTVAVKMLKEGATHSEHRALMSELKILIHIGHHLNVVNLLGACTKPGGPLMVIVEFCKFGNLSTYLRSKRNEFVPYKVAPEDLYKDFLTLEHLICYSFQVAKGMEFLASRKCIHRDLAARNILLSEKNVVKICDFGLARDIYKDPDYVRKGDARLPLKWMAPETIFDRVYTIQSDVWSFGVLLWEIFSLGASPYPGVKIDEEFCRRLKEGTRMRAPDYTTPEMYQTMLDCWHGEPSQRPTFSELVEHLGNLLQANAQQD
- test.protocol: VEGF-R2 coupled spectrophotometric assay (FLVK, unphosphorylated VEGF-R2D50)
- Format: biochemical
- condition.info: unphosphorylated VEGF-R2D50 (FLVK)
pKi: −log10 of the molar value.
test.readout: pKi

Guide cases for pKi, answers given:
COc1ccc2c(Oc3ccc4c(C(=O)NCCN(C)C)c(C)sc4c3)ccnc2c1    < 8.00
CNC(=O)c1c(C)oc2cc(Oc3ccnc4cc(C(=O)N5CCC[C@H]5COC)ccc34)ccc12    8.00 to 9.00
COc1ccc2c(Oc3ccc4c(C(=O)NC[C@@H]5CCCO5)c(C)oc4c3)ccnc2c1    < 8.00

Req: Provide pKi value for the following molecule: "CNCCOc1ccc2c(Oc3ccc4c(C(=O)NC5CC5)c(C)oc4c3)ccnc2c1"
Resp: > 9.00

###

Below: a set of entries, each annotated with reported Ki.
- experimental.system: human vascular endothelial growth factor receptor 2 (VEGF-R2) (Homo sapiens, UniProt P35968, DEL940-989/E990V)
- Construct: VEGF-R2D50 contains residues 806-939 and 990-1171; made in house; host or cells: baculovirus/insect cell system
- test.protocol: VEGF-R2 coupled spectrophotometric assay (FLVK, unphosphorylated VEGF-R2D50)
- Type: biochemical
- condition.info: unphosphorylated VEGF-R2D50 (FLVK)
- Description: This construct determines the ability of a test compound to inhibit tyrosine kinase activity. […] The production of ADP from ATP that accompanies phosphoryl transfer was coupled to oxidation of NADH using phosphoenolpyruvate (PEP) and a system having pyruvate kinase (PK) and lactic dehydrogenase (LDH). The oxidation of NADH was monitored by following the decrease of absorbance at 340 nm (e340=6.22 cm^−1 mM^−1) using a Beckman DU 650 spectrophotometer. […]

COc1ccc2c(Oc3ccc4c(C(=O)NCCCN(C)C)c(C)sc4c3)ccnc2c1    > 10 nM
CNC(=O)c1c(C)sc2cc(Oc3ccnc4ccc(O)cc34)ccc12    > 10 nM
CNC(=O)c1c(C)oc2cc(Oc3ccnc4cc(Br)ccc34)ccc12    1 to 10 nM
COc1ccc2c(Oc3ccc4c(C(=O)NCCC(C)O)c(C)sc4c3)ccnc2c1 (stereo not drawn)    > 10 nM
Cc1oc2cc(Oc3ccnc4cc(OCCO)ccc34)ccc2c1C(=O)NC1CC1    < 1 nM
Cc1cc2ccc(Oc3ccnc4cc(OCCN5CCOCC5)ccc34)cc2o1    > 10 nM
CNC(=O)c1c(C)n(C)c2cc(Oc3ccnc4cc(OCCN5CCCCC5)ccc34)ccc12    > 10 nM
CNC(=O)c1c(C)oc2cc(Oc3ccnc4cc(OCCN5CCOCC5)ccc34)ccc12    1 to 10 nM

Now look at this entry.
Req: Fill in Ki for record "COc1ccc2c(Oc3ccc4c(C(=O)NC5CCCCC5)c(C)sc4c3)ccnc2c1"
Resp: 1 to 10 nM

###

- experimental.system: human vascular endothelial growth factor receptor 2 (VEGF-R2) (Homo sapiens, UniProt P35968, DEL940-989/E990V)
- Construct: VEGF-R2D50 contains residues 806-939 and 990-1171; made in house; host or cells: baculovirus/insect cell system
- test.protocol: VEGF-R2 coupled spectrophotometric assay (FLVK, unphosphorylated VEGF-R2D50)
- Type: biochemical
test.readout: Ki (nM)
Return type: number; implicit unit nM.

Req: Tell us which Ki value is on record for "Cc1cc2ccc(Oc3ccnc4cc(OCCN5CCOCC5)ccc34)cc2o1"
Resp: 32

###

// reported Ki for each item listed
- experimental.system: human vascular endothelial growth factor receptor 2 (VEGF-R2) (Homo sapiens, UniProt P35968, DEL940-989/E990V)
- Construct: VEGF-R2D50 contains residues 806-939 and 990-1171; made in house; host or cells: baculovirus/insect cell system
- test.protocol: VEGF-R2 coupled spectrophotometric assay (FLVK, unphosphorylated VEGF-R2D50)
- Format: biochemical
- condition.info: unphosphorylated VEGF-R2D50 (FLVK)

Recorded results for 3 molecules are shown here.
Cc1oc2cc(Oc3ccnc4cc(-c5ncccn5)ccc34)ccc2c1C(=O)NC1CC1    < 1 nM
CNC(=O)c1c(C)sc2cc(Oc3ccnc4cc(C(F)(F)F)ccc34)ccc12    > 10 nM
COCC(C)NC(=O)c1c(C)oc2cc(Oc3ccnc4cc(OC)ccc34)ccc12 (stereo not shown)    > 10 nM

Kindly review the next molecule as well.
Req: Return value of Ki for input "COc1ccc2c(Oc3ccc4c(C(=O)NC5CCCC5)c(C)sc4c3)ccnc2c1" , no commentary.
Resp: 1 to 10 nM

###

- experimental.system: human vascular endothelial growth factor receptor 2 (VEGF-R2) (Homo sapiens, UniProt P35968, DEL940-989/E990V)
- Construct: VEGF-R2D50 contains residues 806-939 and 990-1171; made in house; host or cells: baculovirus/insect cell system
- test.protocol: VEGF-R2 coupled spectrophotometric assay (FLVK, unphosphorylated VEGF-R2D50)
- Type: biochemical
- condition.info: unphosphorylated VEGF-R2D50 (FLVK)
pKi: −log10 of the molar value.
test.readout: pKi

Please review the following examples before continuing.
CNC(=O)n1c(C)cc2cc(Nc3ccnc4cc(-c5ccncc5)ccc34)ccc21 [Example 11]    8.00 to 9.00
CNC(=O)c1c(C)oc2cc(Oc3ccnc4cc(OCc5ccccn5)ccc34)ccc12 [Example 33]    8.00 to 9.00
CCCCNC(=O)c1c(C)oc2cc(Oc3ccnc4cc(OCCN(C)C)ccc34)ccc12 [Example 46]    8.00 to 9.00

Switching to the query record.
Req: Please supply the value of reported pKi for the item CNC(=O)c1c(C)oc2cc(Oc3ccnc4cc(-c5ccncc5)ccc34)ccc12 [Example 7]
Resp: > 9.00

###

- experimental.system: human vascular endothelial growth factor receptor 2 (VEGF-R2) (Homo sapiens, UniProt P35968, DEL940-989/E990V)
- Construct: VEGF-R2D50 contains residues 806-939 and 990-1171; made in house; host or cells: baculovirus/insect cell system
- test.protocol: VEGF-R2 coupled spectrophotometric assay (FLVK, unphosphorylated VEGF-R2D50)
- Type: biochemical
- condition.info: unphosphorylated VEGF-R2D50 (FLVK)
- Method: This construct determines the ability of a test compound to inhibit tyrosine kinase activity. […] The production of ADP from ATP that accompanies phosphoryl transfer was coupled to oxidation of NADH using phosphoenolpyruvate (PEP) and a system having pyruvate kinase (PK) and lactic dehydrogenase (LDH). The oxidation of NADH was monitored by following the decrease of absorbance at 340 nm (e340=6.22 cm^−1 mM^−1) using a Beckman DU 650 spectrophotometer. […]
Ki reference

// known answers, use as guide
COCC(C)NCCOc1ccc2c(Oc3ccc4c(C(=O)NC5CC5)c(C)oc4c3)ccnc2c1 (centres unmarked)    < 1 nM
COCCNC(=O)c1c(C)oc2cc(Oc3ccnc4cc(OC)ccc34)ccc12    1 to 10 nM
CNC(=O)c1c(C)oc2cc(Oc3ccnc4cc(-c5ccccn5)ccc34)ccc12    < 1 nM
CNC(=O)c1c(C)oc2cc(Oc3ccnc4cc(OC)ccc34)ccc12    < 1 nM
CCCNC(=O)c1c(C)sc2cc(Oc3ccnc4cc(OC)ccc34)ccc12    1 to 10 nM
Cc1oc2cc(Oc3ccnc4cc(OCCNC(C)C)ccc34)ccc2c1C(=O)NC1CC1    < 1 nM

Req: State, in one line, measured Ki of "CCCCNC(=O)c1c(C)oc2cc(Oc3ccnc4cc(OCCN5CCCC5)ccc34)ccc12"
Resp: 1 to 10 nM

Req: Annotate the molecule "CCOCCNC(=O)c1c(C)oc2cc(Oc3ccnc4cc(OC)ccc34)ccc12" with its measured Ki.
Resp: 1 to 10 nM

Req: Report Ki, nothing else, for this molecule: "COc1ccc2c(Oc3ccc4c(C(=O)NC5CC5)c(C)sc4c3)ccnc2c1"
Resp: 1 to 10 nM

Req: Give me measured Ki, please, for this molecule: "CNC(=O)c1c(C)sc2cc(Oc3ccnc4cc(-c5ccccn5)ccc34)ccc12"
Resp: 1 to 10 nM

Req: Tell me its Ki given "CNC(=O)c1c(C)oc2cc(Oc3ccnc4cc(OCCN(C)C)ccc34)ccc12" as the entry.
Resp: 1 to 10 nM

Req: Answer with the recorded Ki for the molecule listed here: "CNC(=O)c1c(C)sc2cc(Oc3ccnc4ccc(-c5ccncc5)cc34)ccc12"
Resp: > 10 nM

Req: Give me measured Ki, please, for this molecule: "CNC(=O)c1c(C)oc2cc(Oc3ccnc4cc(-c5ccco5)ccc34)ccc12"
Resp: < 1 nM

Req: Return Ki for the following molecule: "CNC(=O)c1c(C)sc2cc(Oc3ccnc4cc(C(=O)N5CCC[C@H]5COC)ccc34)ccc12"
Resp: > 10 nM
